Assay: yeast display, Sf9 membrane polyspecificity reagent, FACS + sequencing; frameworks hold sequencing errors
measure: polyreactivity (PSR sort gate)

- biopolymer sequence: "QVQLVESGGGLVQAGGSLRLSCAASGLTFVPYAMGWYRQAPGKERELVAAIDSGGRTNYADSVKGRFTISRDNAKNTVYLQMNSLKPEDTAVYYCAVEWLSYYDENDYWGQGTQVTVSS"
  data value: "high polyreactivity"
- biopolymer sequence: "QVQLVESGGCLVQAGGSLRLSCAASGSIITWNAMVWYRQAPGKERELVAAIDWDGGSTYYADSVKGRFTISRDNAKNTVYLQMHILKPEDTAVYYCAATYGWYTVRYPSGHYYYWGQGTQVTVSS"
  data value: "low polyreactivity"
- biopolymer sequence: "QVQLVESGGGLDQAGGSLRLSCAASGRTFARYDMGWYRQATGKERELVAGINGDGGSTNYADSVKGRFTISRDNSKNTVYLQMNSLKPEDTAVYYCNVDQEDRKLHVSIKQLSDHWGQGTQVTVSS"
  data value: "low polyreactivity"
- biopolymer sequence: "QVQHVESGGGLVQAGGSLRLSCAASGRIFRDNAMGRNRQAPGKEREVVAAISRRGGSTYYADSVKGRFTISRDNAKNTVYLQLNSLKPEDTAVYYCNKTTHSRTFRYDYWGQGTQVTVSS"
  data value: "low polyreactivity"
- biopolymer sequence: "QVQLVESGGGLVQAGGSLRLSCAASGRTFLWYAMGWYRQAPGKERELVAAIRWRGTSTYYADSVKGRFTISRDNAKNTVYLQMNSLKPEDTAVYYCAAKVRSLYWFDYWGQGTQVTVSS"
  data value: "high polyreactivity"

Query :: Fill in reported polyreactivity (PSR sort gate) for this entry: QVQLVESGGCLVQAGGSLRLSCAASGNTIIRYAMGWYRQAPGKERELVAAISYSGGRTYYADSVKGRFTISRDNAKNTVYLQMNSLKPVDNAVYYCNAASRYGGDYWGQGTQVTVSS
Result :: high polyreactivity

Query :: Please look at this sequence and report its polyreactivity (PSR sort gate): QVQLVESGGGLVQAGGSLRLSCAASGLIFYKYAMGWYRQAPGKEREFVAAISGSGGSTYYADSVKGRFTISRDNAKNTVYLQMNSLKPEDTAVYYCAVRQRYGPARYDYWGQGTQVTVSS
Result :: high polyreactivity

Query :: Supply recorded polyreactivity (PSR sort gate) for QVQLVESGGGLVQAGGSLRLSCAASGSIFDSYAMGWYRQAPGKERELVATINTSGGSTYYADSVKGRFTIHDNAKNTVYLQMNSLKPEDTAVYYCAVVVHYSTIGGGYRPRMYYWGQGTQVTVSS here.
Result :: low polyreactivity

====

Assay: yeast display, Sf9 membrane polyspecificity reagent, FACS + sequencing; frameworks hold sequencing errors
measure: polyreactivity (PSR sort gate)

- biopolymer sequence: "QVQLVESGGGLVQAGGSLRLSCAASGNTFYYYAMGWYRQAPGKERELVASITWRGGDTYYADSVKGRFTISRDNAKNTVYLQMNSQKPEDTAVFYFAKPRLGRYDSMSYLGDYAGYVYWGQGTQVTLSS"
  measure: "polyreactivity (PSR sort gate)"
  data value: "low polyreactivity"
- biopolymer sequence: "QVQLVESGGVLLQAGASLRLSCAASGSIIRSYAMGWYRQAPGKERELVASISRRGGSTYYADSVKGRFTISRDNPKNSVFLQMNSLNPVDTADYYCGAVTTSKFNFWGQGTQVTVSS"
  measure: "polyreactivity (PSR sort gate)"
  data value: "low polyreactivity"
- biopolymer sequence: "QVQLVESGGGLVQAGGSLRLSCAASGSIFEGNGMGWYRQAPGKERELVAAITFRSGSTYYADSVKGRFTISRDNAKNTVYLLMNSLKPADTAVYYCAAHESYQVSAYDYWGQGSQVTVSS"
  measure: "polyreactivity (PSR sort gate)"
  data value: "low polyreactivity"

====

Assay: yeast display, Sf9 membrane polyspecificity reagent, FACS + sequencing; frameworks hold sequencing errors
measure: polyreactivity (PSR sort gate)

- biopolymer sequence: "QVQLVESGGGLVQAGGSLRLSCAASGIIFWTYTMGWYRQAPGKERELVAAISSGGSTKYADSVKGRFTISRDNAKNTVYLQMNSLKPEDTAVYYCAAYSAWYGYDYWGQGTQVTVSS"
  polyreactivity (PSR sort gate): "low polyreactivity"
- biopolymer sequence: "QVQLVESGGGLVQAGGSLRLSCAASGSIFSENTMGWYRQAPGKKRELVADITSGGSTNYADSVKGRFTISRDNAKNTVYLQMNSLKPEDTAVYYCNADWEAYKYNYWGQGTQVTVSS"
  polyreactivity (PSR sort gate): "low polyreactivity"
- biopolymer sequence: "QVQLVESGGGLVQAGGSLRLSCAASGSTFVTNDMGWYRQAPGKERELVAAISSGTSTNYADSVKGRFTISRDNAKNTVYLQMNSLKPEDTAVYYCAADSLKRYDYWGQGTQVTVSS"
  polyreactivity (PSR sort gate): "low polyreactivity"
- biopolymer sequence: "QVQLVESGGGLVQAGGSFRLSCAASGSIFDGYAMGWYRQAPGKERELVAAISSGGDSTYYADSVKGRFTISRDNAKNTVYLQMNSLKPEDTAVYYCNADSLVGHSYDYWGQGTQVTVSS"
  polyreactivity (PSR sort gate): "low polyreactivity"
- biopolymer sequence: "QVQLVESGGGLVQAGGSLRLSCAASGRTFYNAMGWYRQAPGKERELVAAITTGGGTKYADSVKGRFTISRDNAKNTVYLQMNSLKPEDTAVYYCNTDEWYHFYHGAHKYDYWGQGTQVTVSS"
  polyreactivity (PSR sort gate): "low polyreactivity"

Read the next record carefully.
Query :: Supply measured polyreactivity (PSR sort gate) of QVQLVESGGGLVQAGGSLRLSFAASGRIFDVYAMGRYRQAPGKERELVAAITWSGGRTYYADSVKGRFTLSRDNAKNTVYLQMNSLKPEDTAVYYCAAEKPYVRGYLGTYDYWGQGTQVTVSS in your reply.
Result :: low polyreactivity

====

Experiment: yeast display, Sf9 membrane polyspecificity reagent, FACS + sequencing; frameworks hold sequencing errors
measure: polyreactivity (PSR sort gate)

Worked cases, polyreactivity (PSR sort gate) given:
- biopolymer sequence: "QVQLVESGGGLVQAGGSLRLSCAASGRTFGTYAMGWYRQAPGKERELVASITSGDSTNYADSVKGRFTISRDNAKNTVYLQMNSLKPEDTAVYYCNADIEFYVLFAYWGQGTQVTVSS"
  polyreactivity (PSR sort gate): "low polyreactivity"
- biopolymer sequence: "QVQLVESGGGLVQAGGSLRLSCAASGRILPFNAMGWYRQAPGKERELVAAIRWRGSSTYYADSVKGRFTISRDIAKNTVYLQMNSLKPEDTAVYYCAAPSSVRGKVISAYYGYWGQGTQVTVSS"
  polyreactivity (PSR sort gate): "high polyreactivity"
- biopolymer sequence: "QVQLVESGGGLVQAGGSLRLSCAASGSTFGWNAMGWYRKAPGKERELVAAISSYGGITYYADSVKGRFTISRDNEKNTVYLQMNSLKPEDTAVYYCAAERDDDWVNYWGQVTQVTVSS"
  polyreactivity (PSR sort gate): "low polyreactivity"
- biopolymer sequence: "QVQLVESGGGLVQAGGSLRLSCAASGSIFKFYAMGWYRQAPGKEREMVAVITYIGGSTYYADSVKGRFTISRDNAKNTVYLQMNSLKPEDTAVYYCNKDGAFHWVGSDPVYLFEYWGQGTQVTVSS"
  polyreactivity (PSR sort gate): "low polyreactivity"
- biopolymer sequence: "QLQLVESGGGLVQAGGSLRLSCAASGRIFQDNPKGWYRPPPSKERELVAAISISGGITYYADSVKGRFTISRDNAKNTVYLQMNSLKPEDTAVYYCNKSISARLPGRYDYWGQGTQVTVSS"
  polyreactivity (PSR sort gate): "low polyreactivity"
- biopolymer sequence: "QVQLVESGGGLVQAGGSLRLSCDASGRTFNYNAMGWYRQAPGKERELVAAISGNGGNTYYADSVKWRFTISRDNAKNTVYLQMNSLKPEDTAGYYCNAVYRYYREWKYDYWGQGTQVTVSS"
  polyreactivity (PSR sort gate): "high polyreactivity"

Query :: Please report the measured polyreactivity (PSR sort gate) for QVQLVESGGGIVQAGGSLRLSCAASGRIFSGNAMGWYRQAPGKERELVATISRRGGSTYYADSVKGRFTISRDNAKNTVYLLMNSLKPEDTAVYYCAVDPYAWTKWSTYNYWGQGTQVTVSS
Result :: high polyreactivity

Query :: Using known records, supply polyreactivity (PSR sort gate) for QVQLVESGGGLVQAGGSLRLSCAASGSIFTYNAMGWYRQAPGKERELVAAISWSGGSRYYADSVKGRFTISRDNAKNTVYLQMNSLKPVDTAVYYCAAALQYRLYFYPKYDYWGQGTQVTVSS
Result :: high polyreactivity

Query :: Report measured polyreactivity (PSR sort gate); entry is QVQLVESGGGLVQAGGSLRLSCAASGSTFASYAMGWYRQAPGKERELVAAITNGGSTNYADSVKGRFTISRDNAKNTVYLQMNSLKPEDTAVYYCAAYDGFPRRYDYWGQGTQVTVSS
Result :: low polyreactivity

Query :: Please give measured polyreactivity (PSR sort gate) of the following entry: QVQLVESGGGLVQAGGSLRLSCAASGSIFKYYTMGWYRQAPGKERELVAAISGSGSRTYYADSVKGRFTISRDNAKNTVYLQMNSLKPEDTAVYYCAAEVKDSFVNAKSYYWGQGTQVTVSS
Result :: high polyreactivity

Query :: Look up and state reported polyreactivity (PSR sort gate) for QVQLVESGGGLVQAGGSLRLSCAASGNTFVYNDMGWYRQAPGKERELVADIRYSGSTYYADSVKGRFTISRDNAKNTVYLQMNSLKPEDTAVYYCAVDSYYFLKDPISYGLYYYWGQGSQVTVSS
Result :: low polyreactivity
